Target: T1, human MSLN-R1-his protein (human, UniProt Q13421 296-390)
T1 construct: also called hMSLN-R1-his; human MSLN-R1 protein; not shown: His tag
T1 chain: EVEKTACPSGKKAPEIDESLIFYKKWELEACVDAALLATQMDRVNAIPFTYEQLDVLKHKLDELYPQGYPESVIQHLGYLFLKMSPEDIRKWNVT
Assay: ELISA, coated antigen; antibody 10 nM
property: OD450
Answers are plain numbers.

IN: Which measured OD450 value corresponds to S009-F1.2.12 human-murine chimeric antibody (antibody, human IgG1, kappa, V domains shown, Chimeric IgG1/kappa) VH: QVQLKQTGPGLVQPSQSLSITCTVSGFSLTNYAVHWVRQSPGKGLEWLGVIWSGGATDYNTVFISRLSISKDNSKSQVFFKVNSLQVDDTAIYYCARTGSGYAMDYWGQGTSVTVSS VL: DIVLTQSPATLSVTPGDRVSLSCRTSHNVNTYLHWYQQKSHESPRLLIKYASQSISEIPSRFSGSGSGTNFTLSINSVETEDFGMYFCHQTNRWPLTFGAGTKLELKR ?
OUT: 0.05

Continue with the next binder.
IN: Which measured OD450 value corresponds to S009-F1.62.9 human-murine chimeric antibody (antibody, human IgG1, kappa, V domains shown, Chimeric IgG1/kappa) VH: EVQLQQSGADLVKPGASVKLSCTVFGLNFKDTFMHWVRQRPEQGLEWIGRIDPANDNSIYGPKFQDKATITADTSSNTAYLHLSSLTSEDTAVYYCLYFDNWGHGTTLTVSS VL: DIVMTQAASSEPVTPGESVSISCRSDKSLLHSNGHNYLYWFLQRPGQSPHLLIYRMSNLASGVPDRFSGSGSGTAFTLRISRVEAEDVGVYYCMQHLEYPLTFGAGTKLELKR ?
OUT: 0.04
